# key: entry, value: pEC50
system: HCV genotype 1b (Con1) replicon in HUH-7 cells; assay: HCV replicon luciferase reporter assay, genotype 1b; type: cell-based; details: Hepatitis C virus, 72 h, genotype 1b replicon, 3 days incubation, read-out: LE_1b (EC50, range)
pEC50: −log10 of the molar value.

- compound: "COc1cnc(O[C@@H]2C[C@H]3C(=O)N[C@]4(C(=O)NS(=O)(=O)C5(CF)CC5)C[C@H]4/C=C\\CC[C@@H](C)O[C@@H](C)[C@H](NC(=O)OC(C)(C)C(F)(F)F)C(=O)N3C2)c2ccccc12 [Compound 2015]"
  subject of test: "HCV genotype 1b (Con1) replicon in HUH-7 cells"
  pEC50: "9.00 to 9.29"

Returns the measured pEC50 for the input compound. Input: CC[C@@H]1O[C@H](C)CC/C=C\[C@@H]2C[C@@]2(C(=O)NS(=O)(=O)C2(C)CC2)NC(=O)[C@@H]2C[C@@H](Oc3nc4cc(OC)ccc4nc3C(F)(F)F)CN2C(=O)[C@H]1NC(=O)OC(C)(C)C(F)(F)F [Compound 1015] 9.30 to 10.00

Where do the numbers come from? From patent US9598433B2.
